- Test system: HCC 2998
- METHOD: NCI tumour cell line growth inhibition, 48 h
Activity calls are given as the source filed them. Rule as the data show it: active = GI50 up to about 1.1 µM and inactive = higher.
Measured GI50 accompanies every entry in the list below.

[[record]]
compound = "C=CCCC1(C)CCCNC1=S (stereo unspecified)"
target_entity = "HCC 2998"
measured_value = "> 100 µM (inactive)"

[[record]]
compound = "c1ccc(P(CCP(c2ccccn2)c2ccccn2)c2ccccc2)cc1"
target_entity = "HCC 2998"
measured_value = "3.37 µM (inactive)"

[[record]]
compound = "CCOC(=O)/C(=C/NC(=S)Nc1c(CC)cccc1C(C)(C)C)C(=O)c1ccccc1"
target_entity = "HCC 2998"
measured_value = "> 100 µM (inactive)"


Complete the entry with GI50 for CC(C)c1cc(C(C)C)c(S(=O)(=O)N/N=C2\CC3CCC2(C)C3(C)C)c(C(C)C)c1 (stereo unspecified)
23.3 µM (inactive)

Supply measured GI50 of COC(=O)C1=C(C)NC(C)=C(C(=O)OC)C1c1cccc(N=O)c1 in your reply.
22.3 µM (inactive)

Return GI50 (reported value) for this compound: CC(=O)Nc1n[n+]([O-])c2cc(C)ccc2[n+]1[O-]
3.84 µM (inactive)

###

Entries and their GI50 values follow.
- Tested on: NCI/ADR-RES
- METHOD: NCI tumour cell line growth inhibition, 48 h
Active and inactive are the calls of the source. Rule as the data show it: active = GI50 up to about 1.1 µM and inactive = higher.

Return GI50 (reported value) for this compound: C1=C(c2ccccc2)C(N2CCOCC2)Oc2ccccc21 (stereo unspecified)
79.8 µM (inactive)

Fill in reported GI50 for this entry: Oc1nc(S)nc(SCc2c(Cl)c(Cl)c(Cl)c(Cl)c2Cl)n1
> 58.5 µM (inactive)

Could you please provide reported GI50 for OC1C=C2C3CN(Cc4cc5c(cc43)OCO5)[C@H]2C[C@@H]1O (stereo partly specified) ? Thanks!
15.7 µM (inactive)

Fill in reported GI50 for this entry: O=C(N=C1N(c2ccccc2)C(=O)C(=O)N1c1ccccc1)c1ccccc1
11 µM (inactive)

Entry N#CSC/C(Cl)=C/Cl.N#CSC/C(Cl)=C\Cl needs its GI50 filled in; supply it.
> 100 µM (inactive)

Given the compound CN(C)/N=N/c1[nH]cnc1C(N)=O , write its reported GI50.
66.4 µM (inactive)

###

- System: K562
- METHOD: NCI tumour cell line growth inhibition, 48 h
Active and inactive are the calls of the source. Rule as the data show it: active = GI50 up to about 1.1 µM and inactive = higher.
QUANTITY: GI50

[[record]]
molecule = "O=C1/C(=C\\c2ccccc2)CN(C(=O)CCN2CCCCC2)C/C1=C/c1ccccc1"
target_entity = "K562"
quantity = "GI50"
measured_value = "0.179 µM (active)"


Quickly give me recorded GI50 for CN(Cc1cnc2nc(N)nc(N)c2n1)c1ccc(C(=O)NC(CCC(=O)NC(P(=O)(O)O)P(=O)(O)O)C(=O)O)cc1 (stereo unspecified)
4.21 µM (inactive)

// fetch GI50 given entry S=C(Nc1ccccc1)N(/N=C/C=C/c1ccccc1)c1nnc(-c2ccccc2)c(-c2ccccc2)n1
36.6 µM (inactive)

Tell me measured GI50 for O=C1Oc2ccccc2C(=O)/C1=C/N1C(=O)/C(=C/c2ccc([N+](=O)[O-])cc2)SC1=S please.
19.4 µM (inactive)

Name the recorded GI50 of the item CC(O)CN1c2ccccc2Sc2ccccc21 (stereo unspecified) in your answer.
> 100 µM (inactive)

Quick one: give measured GI50 for Oc1ccc(Cl)cc1CN1CCN(Cc2cc(Cl)ccc2O)C1
1.39 µM (inactive)

Provide only the value of recorded GI50 for Cc1ccc(NC(=S)N/N=C(/c2ccccc2)c2ccccn2)cc1
< 0.0117 µM (active)

Output GI50 of O=[N+]([O-])c1cc(Cl)ccc1OCc1ccccc1
42.7 µM (inactive)
